The reported numbers originate from patent US6727237B2.

# Tested on: Staphylococcus epidermitis
# assay text: Bacterial growth inhibition screen in LB media (absorbance 595 nm), percent inhibition
# experimental parameters: S. epidermitis; concentration screened 10 uM
readout type: % Inhibition (%)
Numbers only here, please. The scale is %.

Task: Recorded % Inhibition for O=C(c1ccccc1)c1ccc2[nH]c(CCCCCC[n+]3ccc4ccccc4c3)cc2c1 [Compound 573] , please?
Output: 16.09

Task: Recorded % Inhibition for Cc1ccc2[nH]c(CCCC[n+]3ccccc3)cc2c1 [Compound 295] , please?
Output: 94.48

Task: Recorded % Inhibition for CN(C)c1cccc(C(=O)OCCCCCCCc2cc3cc(C(=O)c4ccccc4)ccc3[nH]2)c1 [Compound 643] , please?
Output: 15.46
